studyTarget: T1, cynomolgus monkey CXCR5 (cynomolgus monkey, UniProt P32302 1-372 (human entry))
T1 chain: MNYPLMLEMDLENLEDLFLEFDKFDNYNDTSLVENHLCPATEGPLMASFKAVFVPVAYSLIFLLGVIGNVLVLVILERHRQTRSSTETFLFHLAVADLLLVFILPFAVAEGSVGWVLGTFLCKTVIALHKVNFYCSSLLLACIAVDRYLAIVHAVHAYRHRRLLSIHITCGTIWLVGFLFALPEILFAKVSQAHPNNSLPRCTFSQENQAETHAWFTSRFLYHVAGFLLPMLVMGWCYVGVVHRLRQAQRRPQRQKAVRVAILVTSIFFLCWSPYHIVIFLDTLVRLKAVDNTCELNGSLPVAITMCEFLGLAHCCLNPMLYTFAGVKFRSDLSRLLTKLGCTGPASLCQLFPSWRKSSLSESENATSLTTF
assayExplanation: cell-based or functional assay
// values below are reported ADCC Activity Average EC50, NHP B Cells
Supply the numeric figure in nM, leaving out any unit text.

Please review the following examples before continuing.
{"binder": "Humanized 11G2 151/152 (antibody, human IgG1, V domains shown, also called h11G2 VH (XC152)/VL (XC151)) VH: EVQLVESGGGLVKPGGSLRLSCAASGFTFTDFYMSWVRQAPGKGLEWLGFIRNKANGYTTEYSAPVKGRFTISRDDSKNTLYLQMNSLKTEDTAVYYCVRVYGSTLHYWGQGTLVTVSS VL: DIQMTQSPSSLSASVGDRVTITCRASESVEYHGTSLMHWYQQKPGKAPKLLIYAASNVESGVPSRFSGSGSGTDFTLTISSLQPEDFATYYCQQSRKVPWTFGQGTKVEIK", "recordedResult": 0.0436}
{"binder": "Humanized 11G2 153/156 (antibody, human IgG1, V domains shown, also called h11G2 VH (XC156)/VL (XC153)) VH: EVQLVESGGGLVQPGGSLRLSCATSGFTFTDFYMSWVRQAPGKGLEWVGFIRNKANGYTTEYSASVKGRFTISRDNAKNSLYLQMNSLRAEDTAVYYCVRVYGSTLHYWGQGTLVTVSS VL: DIQMTQSPSSLSASVGDRVTITCRASESVEYHGTSLMHWYQQKPGKAPKLLIYAASNVESGVPSRFSGSGSGTDFTLTISSLQPEDFATYFCQQSRKVPWTFGQGTKVEIK", "recordedResult": 0.0281}

Input Humanized 11G2 154/157 (antibody, human IgG1, V domains shown, also called h11G2 VH (XC157)/VL (XC154)) VH: EVQLVESGGGLVQPGGSLRLSCATSGFTFTDFYMSWVRQAPGKGLEWVGFIRNKANGYTTEYSASVKGRFTISRDNAKSSLYLQMNSLRAEDTAVYYCVRVYGSTLHYWGQGTLVTVSS VL: DIQMTQSPSSLSASVGDRVTITCRASESVEYHGTSLMHWYQQKPGKAPKLLIYAASNVESGVPSRFSGSGSGTDFTLTISSLQPEDFATYYCQQSRKVPWTFGQGTKVEIK . Output ADCC Activity Average EC50, NHP B Cells: 0.054
